# Test system: KERtr cells
# test_description: Keratinocyte proliferation assay (BrdU incorporation)
# Format: cell-based
# cond: KERtr human skin keratinocytes, 72 hr treatment, read-out: Kera. Prolif. IC50
Give pIC50 for every item shown.
Reminder that pIC50 means the negative base-10 logarithm of the concentration expressed in mol/L.

Q. Look up and report pIC50, with KERtr cells as system, for CCC(CC)(c1ccc(OCC(O)C(C)(C)C)c(C)c1)c1cc(C)c(C(=O)NC(C)(C)C(=O)O)s1 (single isomer, unassigned) [Ex. 71]
A. 7.54

Q. Look up and report pIC50, with KERtr cells as system, for CCC(CC)(c1ccc(OCC(O)C(C)(C)C)c(C)c1)c1cc(C)c(C(=O)N[C@@H](C)C(=O)O)s1 (stereo partly shown) [Ex. 55]
A. 10.00

Q. Look up and report pIC50, with KERtr cells as system, for CCC(CC)(c1ccc(OCC(O)C(C)(C)C)c(C)c1)c1cc(C)c(C(=O)N[C@@H](C)C(=O)O)s1 (stereo partly shown) [Ex. 65]
A. 7.25

Q. Look up and report pIC50, with KERtr cells as system, for CCC(CC)(c1ccc(OCC(O)C(C)(C)C)c(C)c1)c1cc(C)c(C(=O)NC(C)(C)C(=O)O)s1 (single isomer, unassigned) [Ex. 77]
A. 6.71
